Test system: HCC-44
Assay: relative viability (nuclei count vs DMSO), 5 days (fraction); higher = more cells survive
Settings: first compound 8 µM
metric name: relative viability
// no unit, no text: just the number

Requested field: relative viability. Item: CCCCCCCCCCCC1=C(O)C(=O)C=C(O)C1=O [Embelin] + Cc1nc(NC(=O)N2CCC[C@H]2C(N)=O)sc1-c1ccnc(C(C)(C)C(F)(F)F)c1 [Alpelisib] (partner 2 µM)
1

Requested field: relative viability. Item: CCCCCCCCCCCC1=C(O)C(=O)C=C(O)C1=O [Embelin] + C[C@@H](Oc1cc(-c2cnn(C3CCNCC3)c2)cnc1N)c1c(Cl)ccc(F)c1Cl [Crizotinib] (partner 1 µM)
0.829

Requested field: relative viability. Item: CCCCCCCCCCCC1=C(O)C(=O)C=C(O)C1=O [Embelin] + CC1(C)CCC(c2ccc(Cl)cc2)=C(CN2CCN(c3ccc(C(=O)NS(=O)(=O)c4ccc(N[C@H](CCN5CCOCC5)CSc5ccccc5)c(S(=O)(=O)C(F)(F)F)c4)cc3)CC2)C1 [Navitoclax] (partner 0.5 µM)
0.923

Requested field: relative viability. Item: CCCCCCCCCCCC1=C(O)C(=O)C=C(O)C1=O [Embelin] + CC(=O)Nc1cccc(-n2c(=O)n(C3CC3)c(=O)c3c(Nc4ccc(I)cc4F)n(C)c(=O)c(C)c32)c1 [Trametinib] (partner 0.02 µM)
1.08

Requested field: relative viability. Item: CCCCCCCCCCCC1=C(O)C(=O)C=C(O)C1=O [Embelin] + CC(C)C[C@H](NC(=O)[C@H](Cc1ccccc1)NC(=O)c1cnccn1)B(O)O [Bortezomib] (partner 0.002 µM)
0.897

Requested field: relative viability. Item: CCCCCCCCCCCC1=C(O)C(=O)C=C(O)C1=O [Embelin] + CCNC(=O)c1noc(-c2cc(C(C)C)c(O)cc2O)c1-c1ccc(CN2CCOCC2)cc1 [Luminespib] (partner 0.01 µM)
0.852
